Biological target: T1, hMSLN-His-Avi (human, UniProt Q13421 296-598, single biotin on the Avi tag in the biotinylated form)
T1 construct: Monomeric; also called human MSLN-His-Avi; hMSLN-Avi-His
T1 sequence (Q13421 other isoform, or with tags, fused parts or gaps): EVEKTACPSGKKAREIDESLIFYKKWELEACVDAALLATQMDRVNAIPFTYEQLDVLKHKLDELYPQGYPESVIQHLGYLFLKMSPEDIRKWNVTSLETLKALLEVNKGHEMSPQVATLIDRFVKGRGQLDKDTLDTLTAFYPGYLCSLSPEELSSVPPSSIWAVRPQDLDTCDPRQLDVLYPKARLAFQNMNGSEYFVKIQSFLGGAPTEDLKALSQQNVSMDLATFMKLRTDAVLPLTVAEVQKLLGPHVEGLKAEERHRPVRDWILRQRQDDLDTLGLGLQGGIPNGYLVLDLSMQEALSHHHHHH
Test: ratio of SPR KDs
Protocol: 7.1 Binding of CD137/MSLN mAb2 to Human MSLN Under Avid Conditions—Antigen Capture Method Binding of all mAb^2 to MSLN immobilised on a BIAcore chip was tested to determine the binding affinity to human MSLN under avid conditions, where a high concentration of immobilised antigen is available to allow the antibody to bind avidly. […] Data were analysed by double referencing against a flow cell which was intentionally left blank (no antigen coating). […]
The following binders are shown together with reported KD ratio in solution/immobilised human MSLN values.
measured-endpoint: KD ratio in solution/immobilised human MSLN

{"binder": "FS22-172-003-AA/FS28-256-271 (bispecific antibody, human IgG1, kappa, L234A L235A, V domains shown, IgG1 mAb^2 with LALA; also called anti-human CD137/MSLN mAb^2) VH: EVQLLESGGGLVQPGGSLRLSCAASGFTFTHTYMSWVRQAPGKGLEWVSAISPTYSTTNYADSVKGRFTISRDNNKNTLYLQMNSLRAEDTAVYYCARYNAYHAALDYWGQGTLVTVSS VL: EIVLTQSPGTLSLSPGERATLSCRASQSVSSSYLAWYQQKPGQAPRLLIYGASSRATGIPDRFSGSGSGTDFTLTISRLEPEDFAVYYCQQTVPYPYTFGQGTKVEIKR", "data-value": 3}
{"binder": "FS22-172-003-AA/FS28-185 (bispecific antibody, human IgG1, kappa, L234A L235A, V domains shown, IgG1 mAb^2 with LALA; also called FS28-185 in CD137 mAb^2 format) VH: EVQLLESGGGLVQPGGSLRLSCAASGFTFTTSAMSWVRQAPGKGLEWVSRINPYEGETNYADSVKGRFTISRDNSKNTLYLQMNSLRAEDTAVYYCARGWSIATYYKSAMDYWGQGTLVTVSS VL: EIVLTQSPGTLSLSPGERATLSCRASQSVSSSYLAWYQQKPGQAPRLLIYGASSRATGIPDRFSGSGSGTDFTLTISRLEPEDFAVYYCQQSSYSAPVTFGQGTKVEIKR", "data-value": 5}
